Provenance of the data: PubChem BioAssay AID662

Test: Cell signaling CRE-BLA (Fsk stim)
Details: CHO CRE-bla reporter (cAMP response element driving beta-lactamase), forskolin EC10, beta-lactamase ratio; series mostly up to 38.2 µM
Screen size: about 71,000 compounds; about 1,800 (2.5%) were called active. Another 26% or so got no clear call; they are omitted. Calls follow the shape of the dose curve; as a rule, active = well fitted activation curve with a large enough effect in the signal ratio, with a control signal flat (not every such curve was filed as active); inconclusive = small, poorly fitted or top-dose-only effect, or effect the other way, or a change in a side signal; inactive = flat fitted curve, though single readings scatter; the % refers to the signal ratio. This excerpt belongs to a sample that is enriched for actives.
Give your call using only these classes: class 1 (active), class 0 (inactive)

- Compound: "CCCCCCN=C(CC)c1c(O)n(CCCC)c(=O)[nH]c1=O"
  Qualitative Label: "class 1"
- Compound: "CCC(=NCCCO)c1c(O)n(-c2ccc(OC)cc2)c(=O)[nH]c1=O"
  Qualitative Label: "class 0"
- Compound: "COc1ccc(S(=O)(=O)NCc2ccc(C(=O)N3CCC4(CC3)OCCO4)cc2)cc1"
  Qualitative Label: "class 0"
- Compound: "O=C(c1cc(S(=O)(=O)N2CCOCC2)ccc1F)N1CCC2(CC1)OCCO2"
  Qualitative Label: "class 0"
- Compound: "N[C@H](Cc1o[nH]c(=O)c1Cl)C(=O)O"
  Qualitative Label: "class 0"

Q: Per the assay record, what outcome was assigned to O=C(c1cc2nc(-c3ccccc3)cc(-c3ccccc3)n2n1)N1CCC2(CC1)OCCO2 ?
A: class 1

Q: Again, but for Cc1cc(-c2ccc(N)c(C)c2)ccc1N
A: class 0

Q: Again, but for ClC(Cl)=C(Cl)C(Cl)=C(Cl)Cl
A: class 0
